Test system: A549 (lung)
Assay: Cytotoxicity MTT assay
Format: cell-based, human
Details: 72 h
Consider the following compounds and their measured pIC50 readings.
API: returns pIC50 as number; meaning -log10 of concentration in mol/L.

N.N.[Cl][Pt][Cl] [cisplatin, reference compound] :: 5.44
[N]#[Os]1([Cl])([Cl])([Cl])[N]2C=CC=c3ccc4c(c32)[N]1C=CC=4 :: 5.10
[N]#[Os]1([Cl])([Cl])([Cl])[N]2C=CC(c3ccccc3)=c3ccc4c(c32)[N]1C=CC=4c1ccccc1 :: 5.71

Here is another compound to look at.
Query: Write down the reported pIC50 of `CC1=C[N]2c3c4c(ccc3=C1C)=C(C)C(C)=C[N]4[Os]2(#[N])([Cl])([Cl])[Cl]` , test system: A549 (lung).
Result: 4.83

---

Tested on: A2780 cells
Assay: Cytotoxicity MTT assay with pathway and cell death inhibitors
Assay type: cell-based, human
Conditions: 72 hours incubation; read-out: IC50 in the absence of pifithrin-α
pIC50: −log10 of the molar value.
endpoint.name: pIC50

Query: Any idea what its pIC50 is? The compound is `[N]#[Os]1([Cl])([Cl])([Cl])[N]2C=CC=c3ccc4c(c32)[N]1C=CC=4`
Result: ~5.35

---

Tested on: HeLa (cervical)
Test: Cytotoxicity MTT assay
Format: cell-based, human
Conditions: 72 h
endpoint.name: pIC50
API: returns pIC50 as number; meaning -log10 of concentration in mol/L.

Example cases with answers are listed next.
CC1=C[N]2c3c4c(ccc3=C1C)=C(C)C(C)=C[N]4[Os]2(#[N])([Cl])([Cl])[Cl] :: 5.20
[N]#[Os]1([Cl])([Cl])([Cl])[N]2C=CC(c3ccccc3)=c3ccc4c(c32)[N]1C=CC=4c1ccccc1 :: 5.54
[N]#[Os]1([Cl])([Cl])([Cl])[N]2C=CC=c3ccc4c(c32)[N]1C=CC=4 :: 5.16

Here is another compound to look at.
Query: Any idea what its pIC50 is? The compound is N.N.[Cl][Pt][Cl] [cisplatin, reference compound]
Result: 5.55

---

Test system: MRC-5 (lung normal)
Test: Cytotoxicity MTT assay
Type: cell-based, human
Settings: 72 h
endpoint.name: pIC50
API: returns pIC50 as number; meaning -log10 of concentration in mol/L.

Example cases with answers are listed next.
CC1=C[N]2c3c4c(ccc3=C1C)=C(C)C(C)=C[N]4[Os]2(#[N])([Cl])([Cl])[Cl] [Complex 3] :: 4.76
N.N.[Cl][Pt][Cl] [cisplatin, reference compound] :: 4.95
[N]#[Os]1([Cl])([Cl])([Cl])[N]2C=CC=c3ccc4c(c32)[N]1C=CC=4 [Complex 2, OsN(1,10-phenanthroline)Cl3] :: 4.78

Query: Any idea what its pIC50 is? The molecule is [N]#[Os]1([Cl])([Cl])([Cl])[N]2C=CC(c3ccccc3)=c3ccc4c(c32)[N]1C=CC=4c1ccccc1 [Complex 4, OsN(4,7-diphenyl-1,10-phenanthroline)Cl3]
Result: 5.07
